// reported log10(Half-life in cycles) per item
Assay: Prolonged piperidine treatment of VKDRYI peptide resin (aspartimide formation, Asp-Arg motif)
Type: physicochemical
Settings: VKDRYI
Method: Automated peptide synthesis, piperidine treatments of the resin samples and final TFA cleavages are performed as described in the protocols of example 4. In addition, to evaluate the advantage of the protecting groups used in this invention in heat accelerated SPPS we treat 50 mg peptide resin samples with a solution of 20% piperidine in DMF at 60°C over 200 minutes. […]
Assay readout: log10(Half-life in cycles) (log10 of the value in cycles)

[
  {
    "Compound": "CC(C)(C)OC(=O)C[C@H](NC(=O)OCC1c2ccccc2-c2ccccc21)C(=O)O [tBu, Fmoc-Asp(OtBu)-OH, reference compound]",
    "log10(Half-life in cycles)": 1.74
  },
  {
    "Compound": "CCC(CC)(CC)OC(=O)C[C@H](NC(=O)OCC1c2ccccc2-c2ccccc21)C(=O)O",
    "log10(Half-life in cycles)": 2.73
  },
  {
    "Compound": "CCCC(CCC)(CCC)OC(=O)C[C@H](NC(=O)OCC1c2ccccc2-c2ccccc21)C(=O)O",
    "log10(Half-life in cycles)": 2.93
  },
  {
    "Compound": "CCCCC(CCCC)(CCCC)OC(=O)C[C@H](NC(=O)OCC1c2ccccc2-c2ccccc21)C(=O)O",
    "log10(Half-life in cycles)": 3.08
  },
  {
    "Compound": "CCC(C)(CC)OC(=O)C[C@H](NC(=O)OCC1c2ccccc2-c2ccccc21)C(=O)O [Mpe, Fmoc-Asp(OMpe)-OH, reference compound]",
    "log10(Half-life in cycles)": 2.24
  }
]

----------
// reported target [%] per item
Assay: Prolonged piperidine treatment of VKDNYI peptide resin (aspartimide formation, Asp-Asn motif)
Format: physicochemical
Details: target peptide VKDNYI; piperidine, 110 Fmoc removal cycles
Method: Automated peptide synthesis, piperidine treatments of the resin samples and final TFA cleavages are performed as described in the protocols of example 4. In addition, 50 mg peptide resin samples are treated with a solution of DBU/piperidine/DMF (1:19:79) over 225 minutes to investigate the aspartimide formation at harsher Fmoc deprotection conditions often used for complete Fmoc removals in aggregation prone sequences. […]

[
  {
    "Compound": "CCC(CC)(CC)OC(=O)C[C@H](NC(=O)OCC1c2ccccc2-c2ccccc21)C(=O)O",
    "target [%] (%)": 81.0
  },
  {
    "Compound": "CCCC(CCC)(CCC)OC(=O)C[C@H](NC(=O)OCC1c2ccccc2-c2ccccc21)C(=O)O",
    "target [%] (%)": 90.8
  },
  {
    "Compound": "CC(C)(C)OC(=O)C[C@H](NC(=O)OCC1c2ccccc2-c2ccccc21)C(=O)O [tBu, Fmoc-Asp(OtBu)-OH, reference compound]",
    "target [%] (%)": 16.1
  },
  {
    "Compound": "CCCCC(CCCC)(CCCC)OC(=O)C[C@H](NC(=O)OCC1c2ccccc2-c2ccccc21)C(=O)O",
    "target [%] (%)": 95.5
  },
  {
    "Compound": "CCC(C)(CC)OC(=O)C[C@H](NC(=O)OCC1c2ccccc2-c2ccccc21)C(=O)O [Mpe, Fmoc-Asp(OMpe)-OH, reference compound]",
    "target [%] (%)": 58.2
  }
]
